Cited source for all entries: patent US20230151068A1

Give measured enrichment score for each item. Keep answers brief.
# ASSAYED SYSTEM: biotinylated His-Avi-TEAD (194-411) (UniProt P28347)
# ASSAY DETAILS: SSM screen, enrichment after two rounds of sorting
Answers are plain numbers.

Example results:
GSPDEYIERAKECCKKLDIQCCLRYFEESGDPNVMLICLFCP (designed binder) [G15L variant of SEQ ID NO: 1]; -0.59
GSPDEYIERAKECCKYGDIQCCLRYFEESGDPNVMLICLFCP (designed binder) [K14Y variant of SEQ ID NO: 1]; -0.68
GSPDEYIERAMECCKKGDIQCCLRYFEESGDPNVMLICLFCP (designed binder) [K09M variant of SEQ ID NO: 1]; -3.56

// switching to the query binder
# lookup: enrichment score of GSPDEDIERAKECCKKGDIQCCLRYFEESGDPNVMLICLFCP (designed binder) [Y04D variant of SEQ ID NO: 1]
-1.79
